# residual activity per entry
assayed_target: ACVR1 (human) (UniProt Q04771)
Sequence (Q04771 whole entry, looked up): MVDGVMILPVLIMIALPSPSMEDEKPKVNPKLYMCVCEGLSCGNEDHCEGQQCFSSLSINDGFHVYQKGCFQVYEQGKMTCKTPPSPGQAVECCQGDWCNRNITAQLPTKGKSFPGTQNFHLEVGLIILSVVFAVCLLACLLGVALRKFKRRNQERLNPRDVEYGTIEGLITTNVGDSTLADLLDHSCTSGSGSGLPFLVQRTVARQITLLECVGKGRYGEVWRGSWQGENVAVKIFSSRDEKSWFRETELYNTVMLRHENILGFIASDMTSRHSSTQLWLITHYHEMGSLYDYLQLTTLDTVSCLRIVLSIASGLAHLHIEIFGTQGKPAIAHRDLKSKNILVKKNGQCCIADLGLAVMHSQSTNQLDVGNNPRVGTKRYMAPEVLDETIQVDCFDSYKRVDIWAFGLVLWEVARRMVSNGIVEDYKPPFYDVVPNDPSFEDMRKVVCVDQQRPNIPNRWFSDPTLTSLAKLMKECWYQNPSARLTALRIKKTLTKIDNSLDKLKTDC
method: radiometric filter-binding kinase assay, Kinase HotSpot
measurement_context: compound 0.5 µM; ATP 10 µM
Quick note: unit goes after the number.

>  <compound>
O=C1Cc2c([nH]c3ccc([N+](=O)[O-])cc23)-c2ccccc2N1

>  <residual activity>
79.7%

$$$$
>  <compound>
CC(C)(C)c1nc2c3ccc(F)cc3c3c(=O)[nH]ccc3c2[nH]1

>  <residual activity>
135%

$$$$
>  <compound>
COc1cc2ncnc(Nc3ccc(F)c(Cl)c3)c2cc1OCCCN1CCOCC1

>  <residual activity>
106%

$$$$
>  <compound>
CC(C)n1cnc2c(Nc3cccc(Cl)c3)nc(NCCO)nc21

>  <residual activity>
80.3%

$$$$

Would you kindly look at the next entry?
Q. Given Cc1ccc(NC(=O)c2ccc(CN3CCN(C)CC3)cc2)cc1Nc1nc(-c2cccnc2)cs1 , respond with its residual activity.
A. 101%
